experiment: Drug distribution in CB17:SCID mouse xenografted with human VCaP cells assessed as heart to plasma ratio at 20 mg/kg, po measured at 6 hrs by LCMS analysis; format: ADME, organism-based
observedProperty: Kp at 6 h
Please respond with just the number, no unit label.

Input CN(c1ccc(C#N)c(Cl)c1)[C@H]1CC[C@H](NC(=O)c2ccc(N3CCN(C4CN(c5ccc6c(c5)C(=O)N(C5CCC(=O)NC5=O)C6=O)C4)CC3)cc2)CC1 (stereo partly specified) . Output Kp at 6 h: 2.5

* * *

assay: Drug distribution in CB17:SCID mouse xenografted with human VCaP cells assessed as prostate gland to plasma ratio at 20 mg/kg, po measured at 24 hrs by LCMS analysis; assay type: ADME, organism-based
observedProperty: Kp at 24 h
Please respond with just the number, no unit label.

Input CN(c1ccc(C#N)c(Cl)c1)[C@H]1CC[C@H](NC(=O)c2ccc(N3CCN(C4CN(c5ccc6c(c5)C(=O)N(C5CCC(=O)NC5=O)C6=O)C4)CC3)cc2)CC1 (stereo partly specified) . Output Kp at 24 h: 0.5

* * *

Collected concentration at 6 h values appear next to each entry.
experiment: Drug distribution in plasma of CB17:SCID mouse xenografted with human VCaP cells at 20 mg/kg, po measured at 6 hrs by LCMS analysis; type: ADME, organism-based
# unit: ng/mL | format: bare number

Past entries and their recorded results:
>>> reportedvalue("CN(c1ccc(C#N)c(Cl)c1)[C@H]1CC[C@H](NC(=O)c2ccc(N3CCN(C4CCN(c5ccc6c(c5)C(=O)N(C5CCC(=O)NC5=O)C6=O)CC4)CC3)cc2)CC1 (some centres undefined)")
37
>>> reportedvalue("CN(c1ccc(C#N)c(Cl)c1)[C@H]1CC[C@H](NC(=O)c2ccc(N3CCN(C4CN(c5ccc6c(c5)C(=O)N(C5CCC(=O)NC5=O)C6=O)C4)CC3)cc2)CC1 (some centres undefined)")
87
>>> reportedvalue("CN(c1ccc(C#N)c(Cl)c1)[C@H]1CC[C@H](NC(=O)c2ccc(N3CC(N4CCN(c5ccc6c(c5)C(=O)N(C5CCC(=O)NC5=O)C6=O)CC4)C3)cc2)CC1 (some centres undefined)")
181

Could you now consider this next compound?
Input CN(c1ccc(C#N)c(Cl)c1)[C@H]1CC[C@H](NC(=O)c2ccc(N3CCC(N4CCN(c5ccc6c(c5)C(=O)N(C5CCC(=O)NC5=O)C6=O)CC4)CC3)cc2)CC1 (some centres undefined) . Output concentration at 6 h: 208

* * *

target: Protein cereblon/Androgen receptor (Homo sapiens, UniProt P10275+Q96SW2, T878A); conditions: lncap
Sequence (P10275 whole entry T878A, stated change not applied): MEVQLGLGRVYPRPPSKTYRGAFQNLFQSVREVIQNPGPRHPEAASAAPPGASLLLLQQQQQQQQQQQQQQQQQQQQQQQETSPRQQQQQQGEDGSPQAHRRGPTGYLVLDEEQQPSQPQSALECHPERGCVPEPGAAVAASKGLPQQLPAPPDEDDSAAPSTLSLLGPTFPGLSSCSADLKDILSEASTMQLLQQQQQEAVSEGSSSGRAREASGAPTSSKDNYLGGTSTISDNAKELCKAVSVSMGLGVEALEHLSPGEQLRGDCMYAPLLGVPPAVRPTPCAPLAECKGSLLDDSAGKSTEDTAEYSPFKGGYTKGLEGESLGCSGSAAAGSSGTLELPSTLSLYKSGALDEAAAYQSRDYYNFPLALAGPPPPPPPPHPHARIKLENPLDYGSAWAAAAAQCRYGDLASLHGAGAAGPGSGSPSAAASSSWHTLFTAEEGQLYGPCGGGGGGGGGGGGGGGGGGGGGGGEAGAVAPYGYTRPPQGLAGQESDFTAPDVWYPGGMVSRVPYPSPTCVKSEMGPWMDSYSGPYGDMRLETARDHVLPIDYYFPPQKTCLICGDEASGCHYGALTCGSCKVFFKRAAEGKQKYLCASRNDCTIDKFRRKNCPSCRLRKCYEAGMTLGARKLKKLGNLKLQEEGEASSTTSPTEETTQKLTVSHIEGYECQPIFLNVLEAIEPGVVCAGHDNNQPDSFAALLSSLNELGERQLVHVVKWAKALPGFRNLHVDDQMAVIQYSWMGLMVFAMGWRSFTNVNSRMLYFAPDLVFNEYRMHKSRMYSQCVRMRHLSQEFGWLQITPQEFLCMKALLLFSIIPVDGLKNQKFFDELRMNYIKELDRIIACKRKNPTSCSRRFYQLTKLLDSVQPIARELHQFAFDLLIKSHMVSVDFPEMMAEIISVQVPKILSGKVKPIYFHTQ
Sequence (Q96SW2 whole entry, stated change not applied): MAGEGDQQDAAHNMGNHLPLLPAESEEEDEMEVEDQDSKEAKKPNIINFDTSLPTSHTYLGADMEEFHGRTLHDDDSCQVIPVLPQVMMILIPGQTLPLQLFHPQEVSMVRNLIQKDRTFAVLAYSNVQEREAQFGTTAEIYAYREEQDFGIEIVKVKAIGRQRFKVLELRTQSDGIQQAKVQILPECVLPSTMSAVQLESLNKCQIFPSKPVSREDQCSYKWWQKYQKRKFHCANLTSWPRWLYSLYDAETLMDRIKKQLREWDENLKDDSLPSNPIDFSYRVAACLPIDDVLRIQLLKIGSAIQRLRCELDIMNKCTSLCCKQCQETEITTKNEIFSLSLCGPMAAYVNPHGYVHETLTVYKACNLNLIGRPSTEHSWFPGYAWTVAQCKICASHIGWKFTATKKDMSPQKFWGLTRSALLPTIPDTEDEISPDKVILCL
Collected DC50 values appear next to each entry.
# unit: nM | format: bare number

>>> reportedvalue("CN(c1ccc(C#N)c(Cl)c1)[C@H]1CC[C@H](NC(=O)c2ccc(N3CCN(C4CN(c5ccc6c(c5)C(=O)N(C5CCC(=O)NC5=O)C6=O)C4)CC3)cc2)CC1 (some centres undefined)")
0.1

Input CN(c1ccc(C#N)c(Cl)c1)[C@H]1CC[C@H](NC(=O)c2ccc(N3CCN(C4CCN(c5ccc6c(c5)C(=O)N(C5CCC(=O)NC5=O)C6=O)CC4)CC3)cc2)CC1 (some centres undefined) . Output DC50: 0.4

Input CN(c1ccc(C#N)c(Cl)c1)[C@H]1CC[C@H](NC(=O)c2ccc(N3CC(CN4CCN(c5ccc6c(c5)C(=O)N(C5CCC(=O)NC5=O)C6=O)CC4)C3)cc2)CC1 (some centres undefined) . Output DC50: 1.9

Input CN(c1ccc(C#N)c(Cl)c1)[C@H]1CC[C@H](NC(=O)c2ccc(N3CC(N4CCN(c5ccc6c(c5)C(=O)N(C5CCC(=O)NC5=O)C6=O)CC4)C3)cc2)CC1 (some centres undefined) . Output DC50: 1.3

* * *

assay: Drug distribution in liver of CB17:SCID mouse xenografted with human VCaP cells at 20 mg/kg, po measured at 6 hrs by LCMS analysis; type: ADME, organism-based; details: read-out: Drug uptake
observedProperty: concentration at 6 h (ng/g)
# unit: ng/g | format: bare number

Input CN(c1ccc(C#N)c(Cl)c1)[C@H]1CC[C@H](NC(=O)c2ccc(N3CCN(C4CN(c5ccc6c(c5)C(=O)N(C5CCC(=O)NC5=O)C6=O)C4)CC3)cc2)CC1 (stereo partly specified) . Output concentration at 6 h: 3510

* * *

assay: Drug distribution in tumor of CB17:SCID mouse xenografted with human VCaP cells at 20 mg/kg, po measured at 24 hrs by LCMS analysis; type: ADME, organism-based, Neoplasm; conditions: read-out: Drug uptake
Collected concentration at 24 h values appear next to each entry.
# unit: ng/g | format: bare number

Input CN(c1ccc(C#N)c(Cl)c1)[C@H]1CC[C@H](NC(=O)c2ccc(N3CC(N4CCN(c5ccc6c(c5)C(=O)N(C5CCC(=O)NC5=O)C6=O)CC4)C3)cc2)CC1 (some centres undefined) . Output concentration at 24 h: 116

* * *

assay: AUC (0 to t) in SCID mouse at 3 mg/kg, po by LC-MS/MS analysis; assay type: ADME, organism-based; set-up: dose 3 mg/kg; conditions: in vivo
observedProperty: AUC(0-t) (ng·h/mL)
# unit: ng·h/mL | format: bare number

Input N#Cc1ccc(O[C@H]2CC[C@H](NC(=O)c3ccc(N4CCC(N5CCN(c6ccc7c(c6)C(=O)N(C6CCC(=O)NC6=O)C7=O)CC5)CC4)cc3)CC2)cc1Cl (stereo partly specified) . Output AUC(0-t): 2150

* * *

test: Drug distribution in CB17:SCID mouse xenografted with human VCaP cells assessed as kidney to plasma ratio at 20 mg/kg, po measured at 24 hrs by LCMS analysis; assay type: ADME, organism-based
observedProperty: Kp at 24 h
Please respond with just the number, no unit label.

Input CN(c1ccc(C#N)c(Cl)c1)[C@H]1CC[C@H](NC(=O)c2ccc(N3CCN(C4CN(c5ccc6c(c5)C(=O)N(C5CCC(=O)NC5=O)C6=O)C4)CC3)cc2)CC1 (stereo partly specified) . Output Kp at 24 h: 1.7

* * *

experiment: Drug distribution in kidney of CB17:SCID mouse xenografted with human VCaP cells at 20 mg/kg, po measured at 1 hrs by LCMS analysis; assay type: ADME, organism-based; details: read-out: Drug uptake
observedProperty: concentration at 1 h

Input CN(c1ccc(C#N)c(Cl)c1)[C@H]1CC[C@H](NC(=O)c2ccc(N3CCN(C4CN(c5ccc6c(c5)C(=O)N(C5CCC(=O)NC5=O)C6=O)C4)CC3)cc2)CC1 (stereo partly specified) . Output concentration at 1 h: 437 ng/g

* * *

test: Drug distribution in kidney of CB17:SCID mouse xenografted with human VCaP cells at 20 mg/kg, po measured at 6 hrs by LCMS analysis; assay type: ADME, organism-based; settings: read-out: Drug uptake
observedProperty: concentration at 6 h (ng/g)
# unit: ng/g | format: bare number

Input CN(c1ccc(C#N)c(Cl)c1)[C@H]1CC[C@H](NC(=O)c2ccc(N3CCN(C4CN(c5ccc6c(c5)C(=O)N(C5CCC(=O)NC5=O)C6=O)C4)CC3)cc2)CC1 (stereo partly specified) . Output concentration at 6 h: 661

* * *

Collected concentration at 6 h values appear next to each entry.
assay: Drug distribution in prostate gland of CB17:SCID mouse xenografted with human VCaP cells at 20 mg/kg, po measured at 6 hrs by LCMS analysis; type: ADME, organism-based; conditions: read-out: Drug uptake
# unit: ng/g | format: bare number

Past entries and their recorded results:
>>> reportedvalue("CN(c1ccc(C#N)c(Cl)c1)[C@H]1CC[C@H](NC(=O)c2ccc(N3CCN(C4CN(c5ccc6c(c5)C(=O)N(C5CCC(=O)NC5=O)C6=O)C4)CC3)cc2)CC1 (some centres undefined)")
76
>>> reportedvalue("CN(c1ccc(C#N)c(Cl)c1)[C@H]1CC[C@H](NC(=O)c2ccc(N3CCN(C4CCN(c5ccc6c(c5)C(=O)N(C5CCC(=O)NC5=O)C6=O)CC4)CC3)cc2)CC1 (some centres undefined)")
58
>>> reportedvalue("CN(c1ccc(C#N)c(Cl)c1)[C@H]1CC[C@H](NC(=O)c2ccc(N3CC(N4CCN(c5ccc6c(c5)C(=O)N(C5CCC(=O)NC5=O)C6=O)CC4)C3)cc2)CC1 (some centres undefined)")
108

Could you now consider this next molecule?
Input CN(c1ccc(C#N)c(Cl)c1)[C@H]1CC[C@H](NC(=O)c2ccc(N3CCC(N4CCN(c5ccc6c(c5)C(=O)N(C5CCC(=O)NC5=O)C6=O)CC4)CC3)cc2)CC1 (some centres undefined) . Output concentration at 6 h: 67

* * *

experiment: Drug distribution in CB17:SCID mouse xenografted with human VCaP cells assessed as heart to plasma ratio at 20 mg/kg, po measured at 1 hrs by LCMS analysis; type: ADME, organism-based
observedProperty: Kp at 1 h

Input CN(c1ccc(C#N)c(Cl)c1)[C@H]1CC[C@H](NC(=O)c2ccc(N3CCN(C4CN(c5ccc6c(c5)C(=O)N(C5CCC(=O)NC5=O)C6=O)C4)CC3)cc2)CC1 (stereo partly specified) . Output Kp at 1 h: 3
